- system_tested: T1, TRBC1 (T cell receptor beta-chain constant domain 1), interaction partner protein injected in SPR (human, UniProt P01850 1-129, limits assumed)
- T1 construct: also called TCR beta constant region 1
- assay_remarks: SPR (Biacore T200), antibody captured on anti-human IgG chip, TRBC1 injected, 25 C, 1:1 Langmuir fit
measured_quantity: koff (s⁻¹)

INSERT INTO results (binder, measured_quantity, test_value) VALUES
  ('Mut5 (antibody, V domains shown, Variant of hJOVI-1; captured by anti-human IgG in SPR; also called VH Y32F) VH: QVQLVQSGAEVKKPGASVKVSCKASGYTFTGFVMHWVRQAPGQGLEWMGFINPYNDDIQSNERFRGRVTMTRDTSISTAYMELSRLRSDDTAVYYCARGAGYNFDGAYRFFDFWGQGTMVTVSS VL: DIVMTQSPLSLPVTPGEPASISCRSSQRLVHSNGNTYLHWYLQKPGQSPRLLIYRVSNRFPGVPDRFSGSGSGTDFTLKISRVEAEDVGVYYCSQSTHVPYTFGQGTKLEIK', 'koff', 0.0457);
